Biological target: T1, rhesus monkey CD22-ECD-His protein (rhesus monkey, UniProt H9G1X2 18-686)
T1 construct: extracellular domain; also called monkey CD22 protein
T1 sequence: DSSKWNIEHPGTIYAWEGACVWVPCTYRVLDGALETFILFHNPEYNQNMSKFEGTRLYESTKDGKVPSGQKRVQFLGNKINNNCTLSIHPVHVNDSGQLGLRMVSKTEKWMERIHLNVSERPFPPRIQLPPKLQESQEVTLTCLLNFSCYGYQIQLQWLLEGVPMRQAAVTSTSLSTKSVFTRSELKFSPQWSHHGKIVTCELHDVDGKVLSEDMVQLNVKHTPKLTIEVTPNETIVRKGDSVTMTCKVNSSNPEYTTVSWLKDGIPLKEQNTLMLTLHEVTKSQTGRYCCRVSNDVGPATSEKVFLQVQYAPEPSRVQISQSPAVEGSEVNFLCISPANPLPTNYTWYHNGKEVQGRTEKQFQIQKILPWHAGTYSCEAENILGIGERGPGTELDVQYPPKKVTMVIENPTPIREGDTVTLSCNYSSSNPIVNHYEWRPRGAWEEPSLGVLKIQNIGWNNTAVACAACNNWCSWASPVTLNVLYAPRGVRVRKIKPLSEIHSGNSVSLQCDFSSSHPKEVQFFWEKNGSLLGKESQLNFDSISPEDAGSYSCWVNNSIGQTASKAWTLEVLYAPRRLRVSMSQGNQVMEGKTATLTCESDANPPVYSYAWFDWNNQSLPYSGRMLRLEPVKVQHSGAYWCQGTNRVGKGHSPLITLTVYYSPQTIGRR
Test: SPR (Biacore), antibody captured on Protein A chip, rhesus CD22 in solution
assay_readout: kon (M⁻¹ s⁻¹)
Give just the numeric value; M⁻¹ s⁻¹ need not be written.

// solved cases for kon follow
Check the records and state kon for F1.250.16 (antibody, human IgG1, kappa, V domains shown, Chimeric IgG1 kappa) VH: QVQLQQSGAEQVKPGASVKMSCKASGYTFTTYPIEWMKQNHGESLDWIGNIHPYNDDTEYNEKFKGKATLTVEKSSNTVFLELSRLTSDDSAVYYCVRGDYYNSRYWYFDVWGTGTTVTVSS VL: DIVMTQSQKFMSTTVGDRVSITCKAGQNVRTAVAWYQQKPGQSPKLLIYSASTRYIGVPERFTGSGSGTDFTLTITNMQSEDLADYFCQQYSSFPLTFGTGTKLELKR 366000

Check the records and state kon for F1.105.11 (antibody, human IgG1, kappa, V domains shown, Chimeric IgG1 kappa) VH: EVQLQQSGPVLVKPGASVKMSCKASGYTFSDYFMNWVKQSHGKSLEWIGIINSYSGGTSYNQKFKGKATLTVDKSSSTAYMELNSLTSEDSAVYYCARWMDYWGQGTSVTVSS VL: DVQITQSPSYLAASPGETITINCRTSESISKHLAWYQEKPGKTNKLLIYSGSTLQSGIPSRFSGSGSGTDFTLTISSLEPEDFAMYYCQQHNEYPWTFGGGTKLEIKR 25900

Continuing:
Check the records and state kon for F2.99.1 (antibody, human IgG1, lambda, V domains shown, Chimeric IgG1 lambda) VH: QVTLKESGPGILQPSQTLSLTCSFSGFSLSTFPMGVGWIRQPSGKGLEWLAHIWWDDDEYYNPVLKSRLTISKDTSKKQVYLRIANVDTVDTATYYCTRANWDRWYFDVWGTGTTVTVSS VL: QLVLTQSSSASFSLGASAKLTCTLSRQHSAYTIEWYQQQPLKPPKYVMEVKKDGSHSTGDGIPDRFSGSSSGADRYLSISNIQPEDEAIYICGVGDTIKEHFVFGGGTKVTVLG 37600

Source of measurements: patent US20240084003A1
